test system: NCI/ADR-RES; assay: NCI tumour cell line growth inhibition, 48 h
The source made the active and inactive calls. Rule as the data show it: active = GI50 up to about 1.1 µM and inactive = higher.
# key: entry, value: GI50

Recorded results for 3 molecules are shown here.
COC1=C(OC)C(=O)C(Cc2c(Cl)nc3sccn23)=C(C)C1=O: 5.89 µM (inactive)
COc1ccc2c(c1)CCc1c(CO)c(COC(=O)NC(C)C)n(C)c1-2: 16.1 µM (inactive)
O=C(/C=C/c1ccc(C(F)(F)F)cc1)c1c([O-])on[n+]1-c1ccccc1: 1.78 µM (inactive)

Please list GI50 recorded for the molecule Cc1ccc(S(=O)(=O)N2CCSCCSCCN(S(=O)(=O)c3ccc(C)cc3)CCN(S(=O)(=O)c3ccc(C)cc3)CC2)cc1 > 100 µM (inactive)

Please list GI50 recorded for the molecule CCOC(=O)c1c2ccccc2n2c(=O)n(-c3ccc(OC)cc3)nnc12 31 µM (inactive)

Hello, the source for this data is ChEMBL document CHEMBL1201862, in case you need it.
